- tgt: OASS (O-acetylserine sulfhydrylase) (Arabidopsis thaliana)
- Sequence (P47998 whole entry): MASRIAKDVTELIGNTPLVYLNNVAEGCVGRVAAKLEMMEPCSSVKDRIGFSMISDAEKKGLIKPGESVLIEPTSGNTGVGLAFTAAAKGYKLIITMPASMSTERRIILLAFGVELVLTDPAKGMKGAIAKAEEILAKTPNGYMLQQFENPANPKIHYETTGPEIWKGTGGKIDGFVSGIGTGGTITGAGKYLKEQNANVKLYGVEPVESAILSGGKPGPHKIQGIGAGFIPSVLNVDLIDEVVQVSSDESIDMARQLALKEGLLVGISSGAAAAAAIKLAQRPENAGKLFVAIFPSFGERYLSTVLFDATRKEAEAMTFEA
- protocol text: biochemical
readout kind: IC50 (µM)

Worked set:
[[record]]
smiles_representation = "COc1ccc(-c2nc(NC(=O)c3ccccc3-c3ccccc3C(=O)O)sc2C)cc1"
result_value = 6.7

[[record]]
smiles_representation = "Nc1cc(F)ccc1-c1csc(NC(=O)c2ccccc2-c2ccccc2C(=O)O)n1"
result_value = 2.7


I = NCCc1ccc(-c2csc(NC(=O)c3ccccc3-c3ccccc3C(=O)O)n2)cc1
II = CC(C)Cc1ccc(-c2csc(NC(=O)c3ccccc3-c3ccccc3C(=O)O)n2)cc1
III = O=C(Nc1cccc(NC(=O)c2ccccc2-c2ccccc2C(=O)O)c1)c1nccs1
Q. Sequence the entries by IC50, beginning with the highest number. Use the labels to give the ranking in the order requested.
A. III, II, I
(III: 10.1 µM, II: 4.8 µM, I: 2 µM)

====

- tgt: OASS (O-acetylserine sulfhydrylase) (Arabidopsis thaliana)
- protocol text: fluorescence polarization competition
- Format: binding
readout kind: IC50 (µM)

[[record]]
smiles_representation = "CC(C)Cc1ccc(-c2csc(NC(=O)c3ccccc3-c3ccccc3C(=O)O)n2)cc1"
result_value = 5.4


A = COc1ccc(-c2cc(NC(=O)c3ccccc3-c3ccccc3C(=O)O)n(CCO)n2)cc1
B = O=C(O)c1ccccc1-c1ccccc1C(=O)Nc1nc(-c2ccc(Cl)cc2Cl)cs1
Q. Lab note: check whether A or B shows the higher recorded IC50. Reply with the label of the item you choose.
A. A
